Measured values drawn from PubChem BioAssay AID588493 for this set.

Parameter: inhibition. Scope: all listed entries.
- tested_on: 26S proteasome non-ATPase regulatory subunit 14 (Homo sapiens)
- assay_text: inhibition of 26S proteasome subunit Rpn11 – biochemical, fluorescence polarization, uHTS, primary screen (AID 588493)
- setup_conditions: human 26S proteasome, Ub4-pepOG fluorescence polarization; at 20 µM; hits give high values; 20S core pre-blocked with epoxomicin
Out of some 360,000 compounds screened, about 2,100 (0.58%) were called active. Only a selection was taken, and actives are over-represented in it overall.

molecule: N#CC(C(=O)c1ccc(S(=O)(=O)N2CCCCCC2)cc1)c1nc2ccccc2[nH]1 (stereo not given)
tested_on: 26S proteasome non-ATPase regulatory subunit 14 (Homo sapiens)
value_unit: %
inhibition: 13.9
--
molecule: Cc1nc2nc(COc3ccccc3)[nH]n2c(=O)c1C
tested_on: 26S proteasome non-ATPase regulatory subunit 14 (Homo sapiens)
value_unit: %
inhibition: 3.7
--
molecule: CCCCN(CC)C(=O)c1ccccc1Oc1ccccc1
tested_on: 26S proteasome non-ATPase regulatory subunit 14 (Homo sapiens)
value_unit: %
inhibition: -5
--
molecule: CS(=O)(=O)c1ccc2c(c1)SC1=NC(=O)/C(=C/c3ccco3)C(=N)N12
tested_on: 26S proteasome non-ATPase regulatory subunit 14 (Homo sapiens)
value_unit: %
inhibition: 76.1
--
molecule: CCS(=O)(=O)C1=NSC2=NC(=O)/C(=C\c3ccc(OS(=O)(=O)c4ccccc4)cc3)C(=N)N21
tested_on: 26S proteasome non-ATPase regulatory subunit 14 (Homo sapiens)
value_unit: %
inhibition: 22.6
